target-entity: TMEM18
assay-notes: pooled miR-30 sensor sort-seq; sequence = guide strand; also: reference of the scale not given here
measurement-conditions: shRNA
recorded-endpoint: sensor-assay potency score (higher = more potent)

Previously resolved entries follow.
item_sequence=TATTTCGAAAATAATCTCCAGT target_entity=TMEM18 reported=-0.177
item_sequence=TAGCTTCGGGAGGACAAGCAGG target_entity=TMEM18 reported=-1.33
item_sequence=TATTTAAATAAAACAACGGTTT target_entity=TMEM18 reported=-1.16
item_sequence=ATAACCACAATGATCATGGCAT target_entity=TMEM18 reported=0.502
item_sequence=TAGTCTGTAGCTTCGGGAGGAC target_entity=TMEM18 reported=-0.482
item_sequence=ATAATCTCCAGTTCATCGCAGC target_entity=TMEM18 reported=-0.328
item_sequence=TTTCAAACCATGAGTCAGCTGG target_entity=TMEM18 reported=0.141
item_sequence=TATAGAAATGAACATCCCCCTG target_entity=TMEM18 reported=-1.12

For each of the items listed, what is its sensor-assay potency score (higher = more potent)?
1. TCTGTAGTCTGTAGCTTCGGGA
2. TATATTTATAATTAGTACTAGT

[-0.977, -0.393]

---

target-entity: MPST
assay-notes: pooled miR-30 sensor sort-seq; sequence = guide strand
measurement-conditions: shRNA
Classification field: enter MET for sensor-assay potency score (higher = more potent) values not below -0.4, NOT MET for values below it.

# count of solved cases: 4
item_sequence=TGAGTGAAGAAACACTCTCTTG classification="NOT MET"
item_sequence=TTCTCCTTGATGTCCTCGTAGG classification="NOT MET"
item_sequence=TTGAGTGAAGAAACACTCTCTT classification=MET
item_sequence=TTGATGTCCTCGTAGGTCTTGA classification="NOT MET"

Decide: is the reported value of sensor-assay potency score (higher = more potent) for TTCTCCTGGAACAGATGGCGGA equal to or greater than -0.4?
NOT MET

Decide: is the reported value of sensor-assay potency score (higher = more potent) for TCGTAGGTCTTGATGAAGGCGG equal to or greater than -0.4?
NOT MET

Decide: is the reported value of sensor-assay potency score (higher = more potent) for TTAGACAGGTCCACTTTCTTCT equal to or greater than -0.4?
MET

Decide: is the reported value of sensor-assay potency score (higher = more potent) for TCGATGTCGAAGAAAGCGGCGC equal to or greater than -0.4?
NOT MET

---

Would you mind telling me the reported sensor-assay potency score (higher = more potent) of each entry?
target-entity: METTL16
assay-notes: pooled miR-30 sensor sort-seq; sequence = guide strand
measurement-conditions: shRNA
Numbers only.

item_sequence=TTCTTCTTTAAGAGCATCCATC reported=-1.07
item_sequence=TTTAAGAGCATCCATCAGGAGT reported=-1.04
item_sequence=TAACAAACTCTAATTCACCTCC reported=0.296
item_sequence=TGTATTAACAGAACTAGGCGGA reported=0.503
item_sequence=TTAACGTTTATCAAACACTTAA reported=-1.21

For each of the items listed, what is its sensor-assay potency score (higher = more potent)?
1. TTTGCTTACCTAATTCTGCTTC
2. TTATCAAACACTTAAACAGGTA
3. TTCTTCGCTTACTTGGTGGTGA

1: 0.554; 2: -0.44; 3: 0.819

---

target-entity: RET
assay-notes: pooled miR-30 sensor sort-seq; sequence = guide strand
measurement-conditions: shRNA
recorded-endpoint: sensor-assay potency score (higher = more potent)
Answers are plain numbers.

Previously resolved entries follow.
item_sequence=TTGGATATCTTGGAAACCCAGT reported=-0.723
item_sequence=TTGTCTGGCCTCTCCATCCGGT reported=-0.338
item_sequence=TACAATTTGATGACATGTGGGT reported=0.209
item_sequence=TAGAGTTTGTTTTCAATCCATG reported=-0.723
item_sequence=TCGTCGTACACGGTCACCGGGA reported=-0.762
item_sequence=TTTAACTGGAATCCGACCCTGG reported=0.235

Retrieve sensor-assay potency score (higher = more potent) on RET; query TTCCGGTTGAGAACCAGCCTAT
-0.898

---

target-entity: TOP1MT
assay-notes: pooled miR-30 sensor sort-seq; sequence = guide strand
measurement-conditions: shRNA
Would you mind telling me the reported sensor-assay potency score (higher = more potent) of each entry?
Give bare numbers.

item_sequence=TTTGCCTGGATCTTCGTCTGGA reported=0.141
item_sequence=TTGTAGGTCCGGAACACCTTGG reported=-0.571
item_sequence=TGTAGGATAAGATCTTAGCTGC reported=0.167
item_sequence=TTCTTCTCCAGGACACTCCTGG reported=0.134

For each of the items listed, what is its sensor-assay potency score (higher = more potent)?
1. TTGTTCTCCTCCTTGTCCGTGG
2. TTTTTCTTGGTGACCATCTAAA
3. TTCTGAACGCTCTCGGTCCAAG

[-0.327, -1.15, -1.34]

Retrieve sensor-assay potency score (higher = more potent) on TOP1MT; query TATTCATGATCTAACATCCTCC
0.13

---

target-entity: TMCC3
assay-notes: pooled miR-30 sensor sort-seq; sequence = guide strand
measurement-conditions: shRNA
recorded-endpoint: sensor-assay potency score (higher = more potent)
Give bare numbers.

Previously resolved entries follow.
item_sequence=TTTGACCTTGTGGAAGTCCAGG reported=-0.907
item_sequence=TTAAAGTGTAACAAAACCCCTC reported=-0.0862

For each of the items listed, what is its sensor-assay potency score (higher = more potent)?
1. TTCTCTCTTAAACTGCACCTTC
2. TTATTGAAAACGAACACAGGTG
3. TACCTTTAGAATTTTTTGCTTC
4. TTGGGTATCCTTGATCTCCCTC
5. TTGAAAACGAACACAGGTGGAG

0.0499
-0.162
-0.127
0.381
0.022

---

target-entity: SNCG
assay-notes: pooled miR-30 sensor sort-seq; sequence = guide strand
measurement-conditions: shRNA
Classification field: enter y for sensor-assay potency score (higher = more potent) values not below -1, n for values below it.

# count of solved cases: 2
item_sequence=ACAACATTCTCCTTGGTCTTGG classification=y
item_sequence=TGGTCTTCTCAGCTGCTTCCGT classification=n

Decide: is the reported value of sensor-assay potency score (higher = more potent) for TTGGATGCCACACCCTCCTGTT equal to or greater than -1?
n

Decide: is the reported value of sensor-assay potency score (higher = more potent) for TGGTCTTTTCCACCGCACCCAC equal to or greater than -1?
n

Decide: is the reported value of sensor-assay potency score (higher = more potent) for TTGGTCTTCTCGGCCACTGAGG equal to or greater than -1?
n

Decide: is the reported value of sensor-assay potency score (higher = more potent) for TTGCGCACCACCCCGGAGGTGA equal to or greater than -1?
n

---

target-entity: CLN3
assay-notes: pooled miR-30 sensor sort-seq; sequence = guide strand
measurement-conditions: shRNA
recorded-endpoint: sensor-assay potency score (higher = more potent)
Give bare numbers.

Previously resolved entries follow.
item_sequence=AATCCCACTGACGAGAACCCGG reported=-0.766
item_sequence=TGGTACAGCATCTGGTACCAGC reported=-1.94
item_sequence=AAATCGTGATGAGCTGTTGTGG reported=-0.817

For each of the items listed, what is its sensor-assay potency score (higher = more potent)?
1. TTGCAGTCAAATCGTGATGAGC
2. GTGAGCAACAAGAAATAGCTGG
3. TTTCCCGATGTCCTCTTGTGGC

[-1.19, -0.754, -1.44]

---

target-entity: ZNF146
assay-notes: pooled miR-30 sensor sort-seq; sequence = guide strand
measurement-conditions: shRNA
Classification field: enter 1.0 for sensor-assay potency score (higher = more potent) values not below -0.5, 0.0 for values below it.

# count of solved cases: 4
item_sequence=TTGAGAACTGAGAGAAAGCTTT target_entity=ZNF146 classification=1.0
item_sequence=TTTTATGAGGTACTTCTTCTGG target_entity=ZNF146 classification=1.0
item_sequence=TCCACAAACATTGCATTCGTAA target_entity=ZNF146 classification=0.0
item_sequence=TTCCACAAACATTGCATTCGTA target_entity=ZNF146 classification=1.0

Kindly review the next sequence as well.
Decide: is the reported value of sensor-assay potency score (higher = more potent) for TTGGATTTGCCACTGAAGGTTT equal to or greater than -0.5?
1.0

---

target-entity: RTF1
assay-notes: pooled miR-30 sensor sort-seq; sequence = guide strand
measurement-conditions: shRNA
recorded-endpoint: sensor-assay potency score (higher = more potent)
One number for each entry.

item_sequence=TACAATCTCTTCAATGTCCTGA reported=0.771

For each of the items listed, what is its sensor-assay potency score (higher = more potent)?
1. ATTGATTTCATCTAGAGTGGGC
2. TTTCTCTGTCATCTGTTCCAGA
3. TTGAGACAAACTCTAAACGGAA
4. TACTTTGAACAGATCTTCTGAG

0.501
-0.00304
-0.778
0.376
